Numbers sourced from the NIST ThermoML archive (doi:10.1016/j.jct.2018.03.013).

# Condition summary: 308.15 K; 100 kPa; Liquid; Frequency=3 MHz; Linear variable-path acoustic interferometer
Reported metric: speed of sound (m/s)
Numbers only; they are read as m/s.

C=C(C)C(=O)OCC [ethyl 2-methylpropenoate]; 1139.4
C=C(C)C(=O)OC [methyl methacrylate]; 1152.6
C=C(C)C(=O)OCCCC [butyl 2-methyl-2-propenoate]; 1183

The record that follows has no speed of sound shown yet.
The reported speed of sound of the molecule CC#N was 1245

---

Examples of compounds with documented mass density follow.
# Condition summary: 293.15 K; 100 kPa; Liquid; Pycnometric method
Write down the numeric answer in kg/m3 and omit the unit.

CC#N; 782.12
C=C(C)C(=O)OC [methyl methacrylate]; 943.38
C=C(C)C(=O)OCC [ethyl 2-methylpropenoate]; 912.3

Next:
# mass density of C=C(C)C(=O)OCCCC [butyl 2-methyl-2-propenoate] = 895.19

---

Consider the following compounds and their measured speed of sound readings.
# Condition summary: 298.15 K; 100 kPa; Liquid; Frequency=3 MHz; Linear variable-path acoustic interferometer
Enter your answer as a number in m/s; do not include the unit.

C=C(C)C(=O)OC [methyl methacrylate]; 1183.6
C=C(C)C(=O)OCC [ethyl 2-methylpropenoate]; 1176.9
C=C(C)C(=O)OCCCC [butyl 2-methyl-2-propenoate]; 1222.1

Would you kindly look at the next entry?
Sample CC#N ; speed of sound observed: 1282.8

---

Measured mass density, listed per entry.
# Condition summary: 308.15 K; 100 kPa; Liquid; Pycnometric method
Give the number; kg/m3 is assumed, so skip it.

Some compounds with recorded mass density:
C=C(C)C(=O)OCCCC [butyl 2-methyl-2-propenoate]; 881.07
C=C(C)C(=O)OC [methyl methacrylate]; 926.16
CC#N; 766.21

Okay, next one:
Quick note, mass density for C=C(C)C(=O)OCC [ethyl 2-methylpropenoate] landed at 896.94

---

Below, each entry is listed alongside its reported speed of sound.
# Condition summary: 303.15 K; 100 kPa; Liquid; Frequency=3 MHz; Linear variable-path acoustic interferometer
Answer format: numeric, m/s implied, no suffix.

Measured speed of sound of C=C(C)C(=O)OC [methyl methacrylate] : 1168.5

---

Below, each of the compounds is paired with its reported mass density value.
# Condition summary: 303.15 K; 100 kPa; Liquid; Pycnometric method
Write it as a number; the unit kg/m3 goes unstated.

C=C(C)C(=O)OCC [ethyl 2-methylpropenoate]; 902.06
C=C(C)C(=O)OC [methyl methacrylate]; 931.9
CC#N; 771.52

What the record says about C=C(C)C(=O)OCCCC [butyl 2-methyl-2-propenoate] : mass density is 885.78

---

speed of sound values for the compounds below.
# Condition summary: 293.15 K; 100 kPa; Liquid; Frequency=3 MHz; Linear variable-path acoustic interferometer
Report the figure in m/s without appending any unit label.

Examples with their reported speed of sound follow.
C=C(C)C(=O)OC [methyl methacrylate]; 1200.5
C=C(C)C(=O)OCCCC [butyl 2-methyl-2-propenoate]; 1241.7
C=C(C)C(=O)OCC [ethyl 2-methylpropenoate]; 1196.8

// switching to the query compound
Summary for this compound, CC#N [acetonitrile] : speed of sound is 1304.7

---

Attribute: speed of sound
# Condition summary: 313.15 K; 100 kPa; Liquid; Frequency=3 MHz; Linear variable-path acoustic interferometer
Your answer is read as m/s, so omit the unit and give the number.

Recorded results for 2 molecules are shown here.
C=C(C)C(=O)OC [methyl methacrylate]; 1135.4
C=C(C)C(=O)OCCCC [butyl 2-methyl-2-propenoate]; 1163.8

Data point: C=C(C)C(=O)OCC [ethyl 2-methylpropenoate] ; speed of sound = 1121.5

speed of sound reported for this molecule CC#N : 1226.5
